The measured values listed here are drawn from patent US6914045B2.

- Tested on: Enterococcus sp.
- assay-summary: in vitro antibacterial evaluation, MIC by broth dilution
- Format: cell-based
- recorded-conditions: strain ATCC 29212; broth dilution, 18 hours at 35° C.
Numbered stars: 1 amine (or outer) side, 2 acyl side, 3 side chain; on linkers, the order of the positions; unused ones are H or OH. Square brackets hold non-standard residues; d marks the D form. Peptide text beside a SMILES is read from it. ξ: configuration not given here. X6 = N=C1NCC(CC(N[*:1])C(=O)[*:2])N1C1OC(CO)C(O)C(O)C1O; Tyr(3-NO2) = N[CH](Cc1ccc(O)c([N+](=O)[O-])c1)C(=O)O; X7 = N=C1NCC(CC(N[*:1])C(=O)[*:2])N1; ξPhe(βξ-Me) = CC(c1ccccc1)C(N)C(=O)O
Documented MIC Enterococcus faecalis (ATCC 29212) across a set of compounds

Reference set, count: 3
[
  {
    "compound": "CCCc1ccc(C2OCC3OC(OC4C(CO)OC(Oc5ccc(CC6NC(=O)C(C(C)c7ccccc7)NC(=O)CNC(=O)C(CO)NC(=O)C(C(O)C7CNC(=N)N7C7OC(CO)C(O)C(O)C7O)NC(=O)C(C(O)C7CNC(=N)N7)NC6=O)cc5)C(O)C4O)C(O)C(O)C3O2)cc1 (stereo not shown)",
    "experimental-target": "Enterococcus sp.",
    "MIC Enterococcus faecalis (ATCC 29212)": "<0.5 µg/mL"
  },
  {
    "compound": "CC(c1ccccc1)C1NC(=O)CNC(=O)C(CO)NC(=O)C(CC2CNC(=N)N2C2OC(CO)C(O)C(O)C2O)NC(=O)C(CC2CNC(=N)N2)NC(=O)C(Cc2ccc(O)c([N+](=O)[O-])c2)NC1=O (stereo not drawn) [Example 10] (cyclo(G[ξPhe(βξ-Me)][Tyr(3-NO2)][X7][X6]S); configuration not given here)",
    "experimental-target": "Enterococcus sp.",
    "MIC Enterococcus faecalis (ATCC 29212)": ">64 µg/mL"
  },
  {
    "compound": "CC(c1ccccc1)C1NC(=O)CNC(=O)C(CO)NC(=O)C(C(O)C2CNC(=N)N2C2OC(CO)C(O)C(O)C2O)NC(=O)C(C(O)C2CNC(=N)N2)NC(=O)C(Cc2ccc3oc(SCc4ccc(-c5ccccc5)cc4)nc3c2)NC1=O (stereo not shown)",
    "experimental-target": "Enterococcus sp.",
    "MIC Enterococcus faecalis (ATCC 29212)": "8 µg/mL"
  }
]

Please turn your attention to the following entry.
Query: Which MIC Enterococcus faecalis (ATCC 29212) is reported for this compound? CC(c1ccccc1)C1NC(=O)CNC(=O)C(CO)NC(=O)C(C(O)C2CNC(=N)N2C2OC(CO)C(O)C(O)C2O)NC(=O)C(C(O)C2CNC(=NC(=O)C(C)(C)C)N2)NC(=O)C(Cc2ccc(OC3OC(CO)C(OC4OC(CO)C(O)C(O)C4O)C(O)C3O)cc2)NC1=O (stereo not shown)
Response: 0.5 to 1 µg/mL

====

Documented MIC Streptococcus pneumoniae (GC 1894) across a set of molecules
- System: Streptococcus sp.
- assay-summary: in vitro antibacterial evaluation, MIC by broth dilution
- Format: cell-based
- recorded-conditions: broth dilution, inoculum 5×10^5 CFU/mL, 18 hours at 35° C.; strain GC 1894

[
  {
    "molecule": "CC(c1ccccc1)C1NC(=O)CNC(=O)C(CO)NC(=O)C(C(O)C2CNC(=N)N2C2OC(CO)C(O)C(O)C2O)NC(=O)C(C(O)C2CNC(=N)N2)NC(=O)C(Cc2ccc(OC3OC(CO)C(OC4OC5COC6(CCCCCCCCCCCC6)OC5C(O)C4O)C(O)C3O)cc2)NC1=O (stereo not shown)",
    "experimental-target": "Streptococcus sp.",
    "MIC Streptococcus pneumoniae (GC 1894)": "<0.06 µg/mL"
  },
  {
    "molecule": "CC(c1ccccc1)C1NC(=O)CNC(=O)C(CO)NC(=O)C(C(O)C2CNC(=N)N2C2OC(CO)C(O)C(O)C2O)NC(=O)C(C(O)C2CNC(=N)N2)NC(=O)C(Cc2ccc(OC3OC(CO)C(OC4OC5COC(c6ccc(C(=O)c7cc(I)c(I)c(I)c7)cc6)OC5C(O)C4O)C(O)C3O)cc2)NC1=O (stereo not shown)",
    "experimental-target": "Streptococcus sp.",
    "MIC Streptococcus pneumoniae (GC 1894)": "<0.12 µg/mL"
  },
  {
    "molecule": "CC(c1ccccc1)C1NC(=O)CNC(=O)C(CO)NC(=O)C(CC2CNC(=N)N2C2OC(CO)C(O)C(O)C2O)NC(=O)C(CC2CNC(=N)N2)NC(=O)C(Cc2ccc(OC3OC(CO)C(OC4OC(CO)C(OCc5ccc(OCc6ccccc6)cc5)C(O)C4O)C(O)C3O)cc2)NC1=O (stereo not shown) [Example 246a]",
    "experimental-target": "Streptococcus sp.",
    "MIC Streptococcus pneumoniae (GC 1894)": "<0.12 µg/mL"
  }
]

Please turn your attention to the following entry.
Query: Which MIC Streptococcus pneumoniae (GC 1894) is reported for this molecule? COc1ccc(Oc2cccc(C3OCC4OC(OC5C(CO)OC(Oc6ccc(CC7NC(=O)C(C(C)c8ccccc8)NC(=O)CNC(=O)C(CO)NC(=O)C(C(O)C8CNC(=N)N8C8OC(CO)C(O)C(O)C8O)NC(=O)C(C(O)C8CNC(=N)N8)NC7=O)cc6)C(O)C5O)C(O)C(O)C4O3)c2)cc1 (stereo not shown)
Response: <0.06 µg/mL

====

- System: Enterococcus sp.
- assay-summary: in vitro antibacterial evaluation, MIC by broth dilution
- Type: cell-based
- recorded-conditions: broth dilution, 18 hours at 35° C.
test-readout: MIC Enterococcus faecium (GC 4556) (µg/mL)
Give your result in µg/mL as a bare value.

[
  {
    "compound": "CCCC(CCC)C(=O)OCC1OC(Oc2ccc(CC3NC(=O)C(C(C)c4ccccc4)NC(=O)CNC(=O)C(CO)NC(=O)C(C(O)C4CNC(=N)N4C4OC(CO)C(O)C(O)C4O)NC(=O)C(C(O)C4CNC(=N)N4)NC3=O)cc2)C(O)C(O)C1OC1OC(CO)C(O)C(O)C1O (stereo not shown) [Example 99b]",
    "unit-text": "µg/mL",
    "MIC Enterococcus faecium (GC 4556)": 16
  }
]

Query: Which MIC Enterococcus faecium (GC 4556) is reported for this compound? CC(c1ccccc1)C1NC(=O)CNC(=O)C(CO)NC(=O)C(C(O)C2CNC(=N)N2C2OC(CO)C(O)C(O)C2O)NC(=O)C(C(O)C2CNC(=N)N2)NC(=O)C(Cc2ccc(OC3OC(CO)C(OC4OC5COC6(CCCCC6C)OC5C(O)C4O)C(O)C3O)cc2)NC1=O (stereo not shown) [Example 204]
Response: 16

====

- Test system: Staphylococcus sp.
- assay-summary: in vitro antibacterial evaluation, MIC by broth dilution
- Type: cell-based
- recorded-conditions: broth dilution, 18 hours at 35° C.; strain GC 3051
Documented MIC Staphylococcus aureus (GC 3051) across a set of compounds
Give your result in µg/mL as a bare value.

[
  {
    "compound": "CC(c1ccccc1)C1NC(=O)CNC(=O)C(CO)NC(=O)C(C(O)C2CNC(=N)N2C2OC(CO)C(O)C(O)C2O)NC(=O)C(C(O)C2CNC(=N)N2)NC(=O)C(Cc2ccc(OC3OC(CO)C(OC4OC5COC(c6cc7c(cc6Cl)OCO7)OC5C(O)C4O)C(O)C3O)cc2)NC1=O (stereo not shown)",
    "unit-text": "µg/mL",
    "MIC Staphylococcus aureus (GC 3051)": 1
  },
  {
    "compound": "CC(c1ccccc1)C1NC(=O)CNC(=O)C(CO)NC(=O)C(C(O)C2CNC(=N)N2C2OC(CO)C(O)C(O)C2O)NC(=O)C(C(O)C2CNC(=N)N2)NC(=O)C(Cc2ccc(OC3OC(CO)C(OC4OC5COC(c6ccc7ccccc7c6)OC5C(O)C4O)C(O)C3O)cc2)NC1=O (stereo not shown)",
    "unit-text": "µg/mL",
    "MIC Staphylococcus aureus (GC 3051)": 1
  }
]

Please turn your attention to the following entry.
Query: Which MIC Staphylococcus aureus (GC 3051) is reported for this compound? CC(c1ccccc1)C1NC(=O)CNC(=O)C(CO)NC(=O)C(C(O)C2CNC(=N)N2C2OC(CO)C(O)C(O)C2O)NC(=O)C(C(O)C2CNC(=N)N2)NC(=O)C(Cc2ccc(OC3OC(CO)C(OC4OC5COC(c6ccc(-c7cccs7)cc6)OC5C(O)C4O)C(O)C3O)cc2)NC1=O (stereo not shown)
Response: 8

====

- assay-summary: clinical pathology (serum clinical chemistry) in mice
- Assay type: in vivo
- recorded-conditions: CD-1 mice, 20 mg/kg intravenously daily for 9 days, sera day 10
Documented Clinical Chemistry (Day 10) % of Control, BUN across a set of compounds

[
  {
    "compound": "COc1ccc2cc(COC3C(CO)OC(OC4C(CO)OC(Oc5ccc(CC6NC(=O)C(C(C)c7ccccc7)NC(=O)CNC(=O)C(CO)NC(=O)C(CC7CNC(=N)N7C7OC(CO)C(O)C(O)C7O)NC(=O)C(CC7CNC(=N)N7)NC6=O)cc5)C(O)C4O)C(O)C3O)ccc2c1 (centres unmarked) [Example 245a]",
    "value": "+212%"
  }
]

Please turn your attention to the following entry.
Query: Which Clinical Chemistry (Day 10) % of Control, BUN is reported for this compound? CC(c1ccccc1)C1NC(=O)CNC(=O)C(CO)NC(=O)C(CC2CNC(=N)N2C2OC(CO)C(O)C(O)C2O)NC(=O)C(CC2CNC(=N)N2)NC(=O)C(Cc2ccc(OC3OC(CO)C(OC4OC(CO)C(O)C(O)C4O)C(O)C3O)cc2)NC1=O (centres unmarked) [Example 277a]
Response: +110%
